The measurements presented in this section are drawn from the supplement of paper PMC9262897.

- System: E. coli TESEC Mtb Alr
- measurement-description: growth (OD600 after 10 h); higher = more growth (less inhibition)
- conditions-used: arabinose 10000000 nM; compound 0.1 mM; raw OD600 reference: median of DMSO wells […], cell-free background 0.052
Structures can show the parent of a compound that is named as a salt.
reported-property: growth
Answer using only a numeral; do not append any unit.

The following compounds have reported results that may help.
CC(O)(P(=O)(O)O)P(=O)(O)O [Etidronic acid, disodium salt] = 0.261
CC(C)(C)NC[C@@H](O)COc1cccc2c1CCCC2=O [(+) -Levobunolol hydrochloride] = 0.339
CCN(CC)CC#CCOC(=O)C(O)(c1ccccc1)C1CCCCC1 (configuration not stated) [Oxybutynin chloride] = 0.145
COc1cccc2c1C(=O)c1c(O)c3c(c(O)c1C2=O)C[C@@](O)(C(=O)CO)C[C@@H]3O[C@H]1C[C@H](N)[C@H](O)[C@H](C)O1 [Doxorubicin hydrochloride] = 0.0585
CC=CC1=C(C(=O)O)N2C(=O)[C@@H](NC(=O)[C@H](N)c3ccc(O)cc3)[C@H]2SC1 [Cefprozil] = 0.374

Request: Which growth is reported for this compound? COc1ccc(-c2cc(=O)c3c(O)cc(O[C@@H]4O[C@H](CO[C@@H]5O[C@@H](C)[C@H](O)[C@@H](O)[C@H]5O)[C@@H](O)[C@H](O)[C@H]4O)cc3o2)cc1O [Diosmin]
Response: 0.426

Request: Which growth is reported for this compound? COC(=O)C1=C(C)NC(C)=C(C(=O)OCCN(C)Cc2ccccc2)C1c1cccc([N+](=O)[O-])c1 (configuration not stated) [Nicardipine hydrochloride]
Response: 0.0545
